Tested on: A2780 cells
Test: In-vitro cell proliferation assay (SRB, 72 hours)
Type: cell-based
Conditions: Homo sapiens, sulforhodamine B (SRB) assay
Reported property: log10 of IC50 (log10 of the value in nM)
Parameter value (number): base-10 log of IC50 in nM.

Use the examples below as a reference point.
Chemical smiles	Test system	log10 of IC50
Cn1cnc(C(=O)N2CCC(CCCCNC(=O)c3ccc4nccn4c3)CC2)c1	A2780 cells	2.03
O=C(NCCCCC1CCN(C(=O)c2cccc(F)c2)CC1)c1ccc2nccn2c1	A2780 cells	1.01
COc1ccc(C(=O)N2CCC(CCCCNC(=O)c3cc4ccncc4s3)CC2)cc1OC	A2780 cells	0.84
O=C(NCCCCC1CCN(C(=O)c2ccc(Cl)cc2Cl)CC1)c1cc2cnccc2[nH]1	A2780 cells	1.08
O=C(NCCCCC1CCN(C(=O)c2ccc(F)cc2)CC1)c1cc2cnccc2[nH]1	A2780 cells	1.17

Returns the measured log10 of IC50 for the input compound. Input: "O=C(NCCCCC1CCN(C(=O)c2cc(Cl)ccc2Cl)CC1)c1ccc2nccn2c1" 0.74

Returns the measured log10 of IC50 for the input compound. Input: "O=C(NCCCCC1CCN(S(=O)(=O)c2ccccc2)CC1)c1cc2cnccc2[nH]1" 0.83

Returns the measured log10 of IC50 for the input compound. Input: "O=C(NCCCCC1CCN(C(=O)c2cccc(Cl)c2)CC1)c1cc2ccncc2s1" 1.66

Returns the measured log10 of IC50 for the input compound. Input: "O=C(NCCCCC1CCN(C(=O)c2cccc(Cl)c2)CC1)c1cc2cnccc2[nH]1" 1.08

Returns the measured log10 of IC50 for the input compound. Input: "O=C(NCCCCC1CCN(C(=O)c2ccccc2)CC1)c1ccc2nccn2c1" 0.76

Returns the measured log10 of IC50 for the input compound. Input: "COc1cccc(C(=O)N2CCN(CCCCNC(=O)c3cc4cnccc4[nH]3)CC2)c1" 2.93

Returns the measured log10 of IC50 for the input compound. Input: "O=C(NCCCCC1CCN(C(=O)c2ccccc2OC(F)(F)F)CC1)c1cc2ccncc2s1" 0.49

Returns the measured log10 of IC50 for the input compound. Input: "COc1ncc(Cl)cc1C(=O)N1CCC(CCCCNC(=O)c2cc3ccncc3s2)CC1" 0.85

Returns the measured log10 of IC50 for the input compound. Input: "O=C(NCCCCC1CCN(C(=O)c2ccc(-n3cccn3)cc2)CC1)c1ccc2nccn2c1" 1.83

Returns the measured log10 of IC50 for the input compound. Input: "COc1ccc(OC)c(C(=O)N2CCC(CCCCNC(=O)c3cc4ccncc4s3)CC2)c1" 0.46

Returns the measured log10 of IC50 for the input compound. Input: "Cc1ncccc1C(=O)N1CCC(CCCCNC(=O)c2cc3cnccc3[nH]2)CC1" 0.23

Returns the measured log10 of IC50 for the input compound. Input: "COc1cccc(C(=O)N2CCC(CCCCNC(=O)c3cc4cnccc4[nH]3)CC2)c1OC" 0.28

Returns the measured log10 of IC50 for the input compound. Input: "COc1ccccc1C(=O)N1CCC(CCCCNC(=O)c2cc3cnccc3[nH]2)CC1" 0.28

Returns the measured log10 of IC50 for the input compound. Input: "Cn1ccc(S(=O)(=O)N2CCC(CCCCNC(=O)c3cc4cnccc4[nH]3)CC2)n1" 0.83

Returns the measured log10 of IC50 for the input compound. Input: "O=C(NCCCCC1CCN(C(=O)c2ccc3c(c2)OCO3)CC1)c1cc2cnccc2[nH]1" 1.15

Returns the measured log10 of IC50 for the input compound. Input: "Cc1cccc(C(=O)N2CCC(CCCCNC(=O)c3cc4cnccc4[nH]3)CC2)c1F" 0.84

Returns the measured log10 of IC50 for the input compound. Input: "O=C(NCCCCC1CCN(S(=O)(=O)c2ccc(C(F)(F)F)nc2)CC1)c1cc2cnccc2[nH]1" 1.47

Returns the measured log10 of IC50 for the input compound. Input: "O=C(NCCCCC1CCN(C(=O)c2ccc3ncsc3c2)CC1)c1ccc2nccn2c1" 1.59

Returns the measured log10 of IC50 for the input compound. Input: "O=C(NCCCCC1CCN(C(=O)c2ccc(F)cn2)CC1)c1cc2cnccc2[nH]1" 1.15

Returns the measured log10 of IC50 for the input compound. Input: "COc1ccc(OC)c(C(=O)N2CCC(CCCCNC(=O)c3ccc4nccn4c3)CC2)c1" 0.28

Returns the measured log10 of IC50 for the input compound. Input: "COc1ccc(C(=O)N2CCC(CCCCNC(=O)c3ccc4nccn4c3)CC2)c(OC)c1" 0.52

Returns the measured log10 of IC50 for the input compound. Input: "O=C(NCCCCC1CCN(C(=O)c2ccc3nccn3c2)CC1)c1cc2cnccc2[nH]1" 1.14

Returns the measured log10 of IC50 for the input compound. Input: "Cc1ncccc1C(=O)N1CCC(CCCCNC(=O)c2ccc3nccn3c2)CC1" 0.26

Returns the measured log10 of IC50 for the input compound. Input: "O=C(NCCCCC1CCN(C(=O)c2csc(-c3cccnc3)n2)CC1)c1cc2cnccc2[nH]1" 1.17

Returns the measured log10 of IC50 for the input compound. Input: "O=C(NCCCCC1CCN(C(=O)c2cccc(F)c2)CC1)c1cc2cnccc2[nH]1" 0.52

Returns the measured log10 of IC50 for the input compound. Input: "O=C(NCCCCC1CCN(C(=O)c2csc(-c3ccccc3)n2)CC1)c1cc2cnccc2[nH]1" 1.86

Returns the measured log10 of IC50 for the input compound. Input: "Cc1ccc(F)cc1C(=O)N1CCC(CCCCNC(=O)c2cc3ccncc3s2)CC1" 0.26

* * *

Molecular target: Recombinant His-tagged NAMPT (Homo sapiens)
Construct: His; host or cells: E. coli
Assay: Biochemical inhibition assay: NAMPT enzymatic reaction, NMN quantified by mass spectrometry
Details: 33 nM NAMPT, 1 μM NAM, 100 μM PRPP, 2.5 mM ATP, 30 minutes at room temperature; read-out: Biochem IC50
A collection of compounds and their measured IC50
Quick note: give the figure in nM, leave out the unit.

Use the examples below as a reference point.
Chemical smiles	Test system	Units label	IC50
COc1ccc(C(=O)N2CCC(CCCCNC(=O)c3cc4ccncc4s3)CC2)cc1	Recombinant His-tagged NAMPT (Homo sapiens)	nM	52.2
O=C(NCCCCC1CCN(C(=O)c2ccc3cc[nH]c3c2)CC1)c1cc2ccncc2s1	Recombinant His-tagged NAMPT (Homo sapiens)	nM	36.1
Cn1cc(CC(=O)N2CCC(CCCCNC(=O)c3cc4ccncc4s3)CC2)c2ccccc21	Recombinant His-tagged NAMPT (Homo sapiens)	nM	11.6
O=C(NCCCCC1CCN(C(=O)c2ccc(C(F)(F)F)cc2)CC1)c1cc2cnccc2[nH]1	Recombinant His-tagged NAMPT (Homo sapiens)	nM	164
Cc1cccc(C(=O)N2CCC(CCCCNC(=O)c3ccc4nccn4c3)CC2)c1F	Recombinant His-tagged NAMPT (Homo sapiens)	nM	22.6

Returns the measured IC50 for the input compound. Input: "CCOc1cccc(C(=O)N2CCC(CCCCNC(=O)c3cc4cnccc4[nH]3)CC2)c1" 85.1

Returns the measured IC50 for the input compound. Input: "O=C(NCCC1CCN(C(=O)c2ccccc2)CC1)c1cc2cnccc2[nH]1" 10000

Returns the measured IC50 for the input compound. Input: "Cc1c(F)cccc1C(=O)N1CCC(CCCCNC(=O)c2cc3cnccc3[nH]2)CC1" 20.5

* * *

Test system: A2780 cells
Experiment: In-vitro cell proliferation assay (SRB, 72 hours)
Format: cell-based
Conditions: Homo sapiens, sulforhodamine B (SRB) assay
Reported property: pIC50
Scale: pIC50 equals -log10([C]), with [C] in mol/L.

Use the examples below as a reference point.
Chemical smiles	Test value
O=C(NCCCCC1CCN(C(=O)c2ccc(F)c(F)c2)CC1)c1ccc2nccn2c1	7.18
Cc1ccc(F)cc1C(=O)N1CCC(CCCCNC(=O)c2ccc3nccn3c2)CC1	8.41
O=C(NCCc1ccc(-c2ccccc2)cc1)c1cc2cnccc2[nH]1	5.40
COc1ccc(Cl)cc1C(=O)N1CCC(CCCCNC(=O)c2cc3cnccc3[nH]2)CC1	8.48
Cc1cccc(C(=O)N2CCC(CCCCNC(=O)c3cc4ccncc4s3)CC2)c1F	7.90
Cc1c(F)cccc1C(=O)N1CCC(CCCCNC(=O)c2ccc3nccn3c2)CC1	8.46

As a next step, examine the compound that follows.
Returns the measured pIC50 for the input compound. Input: "Cc1nc(C(=O)N2CCC(CCCCNC(=O)c3ccc4nccn4c3)CC2)cs1" 7.21

* * *

Target: Recombinant His-tagged NAMPT (Homo sapiens, UniProt P43490)
Construct: His; host or cells: E. coli
Sequence (P43490 whole entry): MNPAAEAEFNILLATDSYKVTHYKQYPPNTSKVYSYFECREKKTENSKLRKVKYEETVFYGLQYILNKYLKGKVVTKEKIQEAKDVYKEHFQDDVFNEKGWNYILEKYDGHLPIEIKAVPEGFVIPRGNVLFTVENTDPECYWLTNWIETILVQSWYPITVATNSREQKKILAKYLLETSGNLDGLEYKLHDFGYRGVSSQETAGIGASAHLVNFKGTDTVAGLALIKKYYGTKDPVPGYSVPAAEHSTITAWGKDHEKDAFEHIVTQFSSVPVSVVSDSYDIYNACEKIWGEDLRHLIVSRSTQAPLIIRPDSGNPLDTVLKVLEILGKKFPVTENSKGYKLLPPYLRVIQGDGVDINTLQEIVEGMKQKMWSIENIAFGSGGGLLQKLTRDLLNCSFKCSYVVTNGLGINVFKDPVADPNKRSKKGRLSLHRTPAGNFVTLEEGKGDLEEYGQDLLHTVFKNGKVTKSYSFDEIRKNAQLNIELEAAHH
Test: Biochemical inhibition assay: NAMPT enzymatic reaction, NMN quantified by mass spectrometry
Settings: 33 nM NAMPT, 1 μM NAM, 100 μM PRPP, 2.5 mM ATP, 30 minutes at room temperature; read-out: Biochem IC50
Reported property: pIC50
Scale: pIC50 equals -log10([C]), with [C] in mol/L.

Chemical smiles	Reported property	Test value
O=C(NCCCCC1CCN(C(=O)c2c(F)cccc2F)CC1)c1cc2cnccc2[nH]1	pIC50	8.14
O=C(NCCCCC1CCN(C(=O)c2ccc(C(F)(F)F)nc2)CC1)c1ccc2nccn2c1	pIC50	7.04
O=C(NCCCCC1CCN(C(=O)c2ccc(OC(F)F)cc2)CC1)c1cc2cnccc2[nH]1	pIC50	6.74

Returns the measured pIC50 for the input compound. Input: "O=C(NCCCCC1CCN(C(=O)c2cc3ccccc3[nH]2)CC1)c1cc2ccncc2s1" 7.47

Returns the measured pIC50 for the input compound. Input: "O=C(NCCCCC1CCN(C(=O)c2csc(C(F)(F)F)n2)CC1)c1ccc2nccn2c1" 7.13

Returns the measured pIC50 for the input compound. Input: "O=C(NCCCCC1CCN(C(=O)c2cc(Cl)ccc2Cl)CC1)c1cc2ccncc2s1" 7.80

Returns the measured pIC50 for the input compound. Input: "COc1cccc(OC)c1C(=O)N1CCC(CCCCNC(=O)c2cc3ccncc3s2)CC1" 8.25

Returns the measured pIC50 for the input compound. Input: "COc1ccc(C(=O)N2CCC(CCCCNC(=O)c3cc4ccncc4s3)CC2)cc1OC" 7.49

Returns the measured pIC50 for the input compound. Input: "COc1ccc(C(=O)N2CCC(CCCCNC(=O)c3cc4cnccc4[nH]3)CC2)cc1" 7.10

Returns the measured pIC50 for the input compound. Input: "O=C(NCCCCCCOc1ccc(Cl)cc1)c1ccc2ncccc2c1" 7.59
